- PROTOCOL_SUMMARY: compounds binding Alexa647 anti-His antibody – biochemical, small-molecule microarray, 635 nm fluorescence, artefact control for SMM control protein annotation, primary screen (AID 1128);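 further: score merges feature fluorescence with signal-to-noise for each printed compound spot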
- SETUP_CONDITIONS: higher = more signal
Recorded composite z-score, one value per entry.
No unit in the answer, please; the number alone is enough.

| COMPOUND | composite z-score |
| --- | --- |
| CN1C(=O)C2C(C1=O)C1C=C(CCCO)C2C(C2CC2)N1Cc1cccc(OC(F)(F)F)c1 (centres undefined) | 1.37 |
| COC(=O)[C@@]1(Cc2ccccc2)[C@H]2c3cc(C(=O)N(C)C)n(CCO)c3C[C@H]2CN1C(=O)c1ccccc1 | 1.86 |
| COC(=O)[C@@]1(Cc2ccc(OC)cc2)[C@H]2c3cc(C(=O)N4CCCC4)n(CCn4cc([N+](=O)[O-])nc4C)c3C[C@H]2CN1C(=O)c1ccccc1 | 3.4 |

Consider the record given below.
Enquiry: Fill in composite z-score for record [N-]=[N+]=Nc1ccccc1[C@H]1OC(c2ccc(OCCCO)cc2)=N[C@@]1(Cc1ccccc1)C(=O)NCC(O)CO (some centres undefined)
Return: 1.67
